- assay-procedure: Pharmacokinetics and metabolism after iv and po administration
- Assay type: in vivo
- condition-notes: male, C57/BL6, mouse, plasma, iv, 5 mg/kg, 0.25 h after iv 5 mg/kg artemisone 7; read-out: Mean iv circulating concentration
property-measured: concentration at 0.25 h (nM)
Just the number in nM, nothing appended.

Problem: Provide measured concentration at 0.25 h value, entry: C[C@H]1[C@H](N2CCS(=O)(=O)CC2)O[C@@H]2O[C@@]3(C)CC[C@H]4[C@H](C)CC[C@@H]1[C@@]24OO3
Solution: 2510

====

- assay-procedure: Pharmacokinetics and metabolism after iv and po administration
- Format: in vivo
- condition-notes: male, C57/BL6, mouse, plasma, iv, 5 mg/kg, 5 h after iv 5 mg/kg artemisox 6; read-out: Mean iv circulating concentration
property-measured: concentration at 5 h (nM)
Just the number in nM, nothing appended.

Problem: Provide measured concentration at 5 h value, entry: C[C@H]1[C@H](N2CC[S+]([O-])CC2)O[C@@H]2O[C@@]3(C)CC[C@H]4[C@H](C)CC[C@@H]1[C@@]24OO3
Solution: 7

====

- assay-procedure: Pharmacokinetics and metabolism after iv and po administration
- Format: in vivo
- condition-notes: male, C57/BL6, mouse, plasma, iv, 5 mg/kg, 7 h after iv 5 mg/kg artemiside 5; read-out: Mean iv circulating concentration
property-measured: concentration at 7 h (nM)
Just the number in nM, nothing appended.

compound	units-symbol	concentration at 7 h
C[C@H]1[C@H](N2CCSCC2)O[C@@H]2O[C@@]3(C)CC[C@H]4[C@H](C)CC[C@@H]1[C@@]24OO3 [Artemiside 5, Artemiside]	nM	37

Now, please, on to the next compound.
Problem: Provide measured concentration at 7 h value, entry: C[C@H]1[C@H](N2CC[S+]([O-])CC2)O[C@@H]2O[C@@]3(C)CC[C@H]4[C@H](C)CC[C@@H]1[C@@]24OO3
Solution: 11

====

- assay-procedure: Pharmacokinetics and metabolism after iv and po administration
- Assay type: in vivo
- condition-notes: male, C57/BL6, mouse, plasma; iv 5 mg/kg, parent drug; 0-last up to 7 h; read-out: MRT0-last
MRT last for assorted compounds
Just the number in min, nothing appended.

compound	units-symbol	value-reported
C[C@H]1[C@H](N2CCS(=O)(=O)CC2)O[C@@H]2O[C@@]3(C)CC[C@H]4[C@H](C)CC[C@@H]1[C@@]24OO3	min	33.6

Problem: Provide measured MRT last value, entry: C[C@H]1[C@H](N2CC[S+]([O-])CC2)O[C@@H]2O[C@@]3(C)CC[C@H]4[C@H](C)CC[C@@H]1[C@@]24OO3
Solution: 34.2

Problem: Provide measured MRT last value, entry: C[C@H]1[C@H](N2CCSCC2)O[C@@H]2O[C@@]3(C)CC[C@H]4[C@H](C)CC[C@@H]1[C@@]24OO3 [Artemiside 5, Artemiside]
Solution: 60

====

- assay-procedure: Pharmacokinetics and metabolism after iv and po administration
- Type: in vivo
- condition-notes: male, C57/BL6, mouse, plasma; iv 5 mg/kg, parent drug
AUC(0-inf) for assorted molecules
Respond with the figure and its unit, in that order.

The cases that follow already have their AUC(0-inf) on record.
molecule	value-reported
C[C@H]1[C@H](N2CCSCC2)O[C@@H]2O[C@@]3(C)CC[C@H]4[C@H](C)CC[C@@H]1[C@@]24OO3 [Artemiside 5, Artemiside]	3.9 µM·h
C[C@H]1[C@H](N2CCS(=O)(=O)CC2)O[C@@H]2O[C@@]3(C)CC[C@H]4[C@H](C)CC[C@@H]1[C@@]24OO3 [Artemisone 7, Artemisone]	2.5 µM·h

Problem: Provide measured AUC(0-inf) value, entry: C[C@H]1[C@H](N2CC[S+]([O-])CC2)O[C@@H]2O[C@@]3(C)CC[C@H]4[C@H](C)CC[C@@H]1[C@@]24OO3 [Artemisox 6, Artemisox]
Solution: 2 µM·h
